meta.source: the SangsterLogP compilation

- experiment-summary: method code SF-AS, from PMID: 2160644
reported-metric: logP
I'd appreciate a reply containing only the number, no unit.

// returns reported logP for input `O=C(O)c1cc(=O)[nH]c(=O)[nH]1`
-0.83

###

- experiment-summary: method code SF-AS, from DOI: 10.1002/ardp.19843170314
reported-metric: logP
I'd appreciate a reply containing only the number, no unit.

// returns reported logP for input `O=C(O)Cc1ccccc1Oc1ccc(Cl)cc1Cl`
4.8

###

- experiment-summary: method code SF-RC, from DOI: 10.1016/0006-2952(75)90159-8, PMID: 1168477
reported-metric: logP
I'd appreciate a reply containing only the number, no unit.

// returns reported logP for input `CCCN(C(C)=O)C(C)C`
1.48

###

- experiment-summary: method code pH-metric titration, from DOI: 10.1002/(sici)1096-9063(199607)47:3<265::aid-ps416>3.0.co;2-f
reported-metric: logP
I'd appreciate a reply containing only the number, no unit.

// returns reported logP for input CCO/N=C(\CC)C1=C(O)CC(c2c(C)cc(C)cc2C)CC1=O (stereo unspecified)
4.46

###

- experiment-summary: method code SF-AS, from DOI: 10.1248/bpb1978.7.120, PMID: 6427444
Kindly return T if reported logP is no lower than 2; return F if it is lower.

# bool: logP of COC12C(COC(N)=O)C3=C(C(=O)C(C)=C(N)C3=O)N1CC1C2N1C(=O)OC1CCC2=CCC3C(CCC4(C)C(C(C)CCCC(C)C)CCC34)C2(C)CC1 (stereo unspecified) >= 2
T

# bool: logP of `CCCCCCCCCOC(=O)N1[C@H]2[C@@H]1CN1C3=C(C(=O)C(N)=C(C)C3=O)[C@@H](COC(N)=O)[C@@]21OC` >= 2
T

# bool: logP of CCCOC(=O)N1C2CN3C4=C(C(=O)C(N)=C(C)C4=O)C(COC(N)=O)C3(OC)C21 (stereo unspecified) >= 2
F

# bool: logP of CCCCCOC(=O)N1C2CN3C4=C(C(=O)C(N)=C(C)C4=O)C(COC(N)=O)C3(OC)C21 (stereo unspecified) >= 2
T

# bool: logP of COC12C(COC(N)=O)C3=C(C(=O)C(C)=C(N)C3=O)N1CC1C2N1C(=O)Cc1ccccc1 (stereo unspecified) >= 2
F

###

- experiment-summary: method code SF-AS, from DOI: 10.1021/es00127a005
reported-metric: logP
I'd appreciate a reply containing only the number, no unit.

// returns reported logP for input `Oc1ccc(C(c2ccccc2)c2ccc(O)cc2)cc1`
4.3

###

- experiment-summary: method code SF-AS, from DOI: 10.1002/pauz.19770060602
- experimental-conditions: pH 4.0
reported-metric: logD
I'd appreciate a reply containing only the number, no unit.

// returns reported logD for input `O=C1CN(O)C(c2ccccc2)=c2cc(Cl)ccc2=N1`
1.49

###

- experiment-summary: method code SF-AS, from DOI: 10.1016/s0378-5173(98)00405-0, PMID: 10089287
- experimental-conditions: pH 7.4
reported-metric: logD

// returns reported logD for input `Cc1cc(=O)n2ccccc2n1`
0.6

###

- experiment-summary: method code SF-HPLC, from DOI: 10.1002/ps.2780220406
reported-metric: logP
I'd appreciate a reply containing only the number, no unit.

// returns reported logP for input `Clc1ccc(Cn2cncn2)cc1Cl`
2.54

###

- experiment-summary: method code SF-AS, from PMID: 6692390
- experimental-conditions: pH 4.0
reported-metric: logD
I'd appreciate a reply containing only the number, no unit.

// returns reported logD for input `COc1ccc(NC(=O)N(C)N=O)cc1`
0.64

###

- experiment-summary: method code SF-AS, from PMID: 19779
- experimental-conditions: pH 2.0
reported-metric: logD
I'd appreciate a reply containing only the number, no unit.

// returns reported logD for input CCC1(c2ccccc2)C(=O)NC(=O)N(C)C1=O (stereo unspecified)
1.84

###

- experiment-summary: method code SF-AS, from DOI: 10.1021/jf60177a051
reported-metric: logP
I'd appreciate a reply containing only the number, no unit.

Worked set:
compound	reported-metric	value
CC1=C(C(=O)O)SCCO1	logP	0.04
CC1=C(C(=O)Nc2ccccc2)SCCO1	logP	1.73
CC1=C(C(=O)Nc2ccccc2)S(=O)CCO1 (centres undefined)	logP	0.64

As a next step, examine the compound that follows.
// returns reported logP for input `CC1=C(C(=O)Nc2ccccc2-c2ccccc2)SCCO1`
2.54

###

reported-metric: logP

// returns reported logP for input `CN(C)CC/C=C1/c2ccccc2Sc2ccc(Cl)cc21`
5.18

###

# logP values compiled below
I'd appreciate a reply containing only the number, no unit.

Worked set:
O=C(O)CCCCCCCOC(=O)Oc1ccccc1 3.39
O=C(O)CCCCCCCCCCCOC(=O)Oc1ccccc1 4.26
O=C(O)CCCCCCCCCCCCCCCOC(=O)Oc1ccccc1 4.67

// returns reported logP for input `O=C(O)COC(=O)Oc1ccccc1`
1.72

###

- experiment-summary: method code SF-RC, from DOI: 10.1002/jps.2600800111, PMID: 2013848
reported-metric: logP
I'd appreciate a reply containing only the number, no unit.

// returns reported logP for input `Nc1ccc(S(=O)(=O)O)cc1`
-2.16

###

# logP values compiled below

Worked set:
Clc1cccc2ccccc12 3.9
Clc1ccc2cccc(Cl)c2c1 4.56

As a next step, examine the compound that follows.
// returns reported logP for input `[cH:1]1[c:2]([Cl:3])[c:4]2[cH:5][cH:6][cH:7][c:8]([Cl:9])[c:10]2[cH:11][cH:12]1`
4.67

###

# logP values compiled below
- experiment-summary: from Rich, R. (1990). Partition coefficients of quinones and their relation to biochemical reactivity. In Lenaz, G. (Ed.), Highlights in Ubiquinone Research: Proceedings of the International Symposium, …
I'd appreciate a reply containing only the number, no unit.

Worked set:
Cc1cc(O)cc(C)c1O 1
Cc1c(C)c(O)c(C)c(C)c1O 1.8
CC1=CC(=O)C=C(C)C1=O 0.95

// returns reported logP for input `Cc1cc(O)ccc1O`
0.91

// returns reported logP for input `Cc1c(O)ccc(O)c1C`
1.36

###

reported-metric: logP
I'd appreciate a reply containing only the number, no unit.

molecule	logP
CCC1(CC)C(=O)N=C(OC(C)C)NC1=O	1.44
CCC1(CC)C(=O)NC(=O)N(C(C)C)C1=O	2.36
CCC1(c2ccccc2)C(=O)N=C(OC(C)C)NC1=O (centres undefined)	1.79

As a next step, examine the molecule that follows.
// returns reported logP for input CCC1(c2ccccc2)C(=O)NC(=O)N=C1OC(C)C (centres undefined)
2.22

###

# logP values compiled below
I'd appreciate a reply containing only the number, no unit.

Worked set:
compound	logP
C=C(C)C(=O)OCCC(C)OC(=O)C(=C)C (stereo not drawn)	2.16
C=C(C)C(=O)OCC(O)COc1ccc(C(C)(C)c2ccc(OCC(O)COC(=O)C(=C)C)cc2)cc1 (stereo not drawn)	3.34

As a next step, examine the compound that follows.
// returns reported logP for input `C=C(C)C(=O)OCc1ccccc1`
2.16

###

- experiment-summary: method code SF-AS, from DOI: 10.1016/0041-008x(67)90079-8
# logP values compiled below

Clc1cnc(Cl)c(Cl)c1 3.11
Clc1cccc(Cl)n1 2.15
Clc1cc(Cl)nc(Cl)c1 2.68

As a next step, examine the molecule that follows.
// returns reported logP for input `Clc1cccnc1Cl`
2.11

###

# logP values compiled below
I'd appreciate a reply containing only the number, no unit.

// returns reported logP for input `O=C(CCO[N+](=O)[O-])Oc1ccccc1C(=O)O`
1.6

// returns reported logP for input `O=C(CCCCO[N+](=O)[O-])Oc1ccccc1C(=O)O`
2.21

// returns reported logP for input O=C(CCCC(CO[N+](=O)[O-])O[N+](=O)[O-])Oc1ccccc1C(=O)O (centres undefined)
2.62

// returns reported logP for input `O=C(CCCCCCO[N+](=O)[O-])Oc1ccccc1C(=O)O`
3.22
